src = PubChem BioAssay

experiment: E. coli growth modulation, two-sided OD650, primary screen, E. coli filamentation project, strain DRC41, 24 h (AID 1093); details: OD650, 24 h, higher = more signal, called active from +8 up or from −8 down;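 note: MC1000 strain lacking acrAB efflux and sulA so SOS filamentation is blocked; test concentration not given here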
readout: z-score
Reply with just the number.

Example cases with answers are listed next.
molecule: O=C1NC(=O)C2C1C=CC(C(O)CCc1ccccc1)N2Nc1ccc(Cl)cc1Cl (stereo not given)
z-score: -0.748
//
molecule: CC1CC/C=C\[C@H]2OC34C=CCN(C(C)C)C(=O)[C@H]3N(CCCCCCO)C(=O)[C@@H]4C2C(=O)O1 (stereo not given in full)
z-score: 2.5
//
molecule: O=C1C2C=CC(C(O)c3ccccc3)N(Nc3ccccc3F)C2C(=O)N1c1ccccc1 (stereo not given)
z-score: -0.106
//
molecule: CN1C(=O)C2C=CC(C(O)COCc3ccccc3)N(N(c3ccccc3)c3ccccc3)C2C1=O (stereo not given)
z-score: -0.0181
//
molecule: CCOC(=O)c1ccc(NC(=O)O[C@H]2[C@H](OC(=O)Nc3ccc4c(c3)OCO4)[C@@H](OC(=O)Nc3ccc4c(c3)OCO4)[C@@H](OC)O[C@@H]2CO)cc1
z-score: 1.15

Provide only the value of recorded z-score for COC(=O)[C@@]1(Cc2ccccc2N=[N+]=[N-])N=C(c2ccc(OCCCO)cc2)O[C@H]1c1ccccc1N=[N+]=[N-]
1.51

Provide only the value of recorded z-score for COCCOC(=O)N1C(=O)[C@@]2(c3cc(C#Cc4ccc(OC)cc4)ccc31)[C@H](C(=O)Nc1nc3ccccc3s1)[C@H]1C(=O)O[C@H](c3ccccc3)[C@H](c3ccccc3)N1[C@@H]2c1ccc(O)cc1
1.57

Provide only the value of recorded z-score for CCOC(=O)C[C@H]1[C@H](OC(=O)c2cc3ccccc3oc2=O)[C@@H](NC(=O)c2ccc(-c3ccccc3)cc2)c2cc(OCCCO)ccc2N1C(=O)c1ccc2ccccc2n1
-0.0642

Provide only the value of recorded z-score for COC(=O)[C@@]1(Cc2ccccc2)[C@@H]2C(=CC(=O)[C@H]2CC(=O)C(=O)N(C)C)CN1C(=O)c1ccccc1
0.844

Provide only the value of recorded z-score for COC(=O)c1nc2oc1CC[C@@H](CO)NC(=O)N(C)Cc1cnnn1C[C@H](Cc1ccccc1)NC2=O
1.27

Provide only the value of recorded z-score for C[C@]1(C(=O)NC2CC2)c2ccccc2C(=O)N(Cc2ccccc2)[C@H]1c1ccc(CO)cc1
1.84

Provide only the value of recorded z-score for CN1C(=O)C2C=CC(C(O)c3cccc(O)c3)N(Nc3ccccc3)C2C1=O (stereo not given)
-0.509

Provide only the value of recorded z-score for CCOC(=O)C1=CC[C@@H](c2ccc(OCc3ccccc3)c(OC)c2)N(S(=O)(=O)c2ccc(C)cc2)[C@H]1c1ccc(SC)cc1
-0.628

Provide only the value of recorded z-score for COc1ccc([Si](C)(C)[C@@H]2[C@@H](CCn3cc([C@H](O)c4ccccc4)nn3)O[C@]3(C(=O)N(Cc4ccc(N5CCC5=O)cc4)c4ccccc43)[C@H]2C)cc1
0.705

Provide only the value of recorded z-score for COC(=O)[C@@]1(Cc2ccc(OC)cc2)[C@H]2c3cc(C(=O)N4CCCC4)n(Cc4cccc5ccccc45)c3C[C@H]2CN1C(=O)c1ccccc1
0.0929

----------
assay: A549 cell viability effects, profiling panel, calcein-AM fluorescence, 48 h, basal (AID 1162); settings: higher = more signal; note: test concentration not given here
readout: z-score
Reply with just the number.

Example cases with answers are listed next.
compound: COc1ccc([Si](C)(C)[C@@H]2[C@@H](CC(=O)N(CCO)Cc3ccccc3)O[C@]3(C(=O)N(c4ccccc4)c4ccccc43)[C@H]2C)cc1
z-score: -2.69
//
compound: C[N+](C)(C)CCCCCCNC(=O)[C@H]1C[C@H]2C(=O)NCC(=O)N2[C@H]1c1ccc(O)cc1
z-score: -0.93
//
compound: COCCOC(=O)N1C(=O)[C@@]2(c3cc(C#CC4=CCCCC4)ccc31)[C@H](c1ccccc1OCCO)N1[C@H](c3ccccc3)[C@H](c3ccccc3)OC(=O)[C@H]1[C@@H]2C(=O)N1CCCCCCC1
z-score: -2.1
//
compound: COCCOC(=O)N1C(=O)[C@@]2(c3cc(C#CC4(O)CCCCCC4)ccc31)[C@H](c1ccc(O)cc1)N1[C@H](c3ccccc3)[C@H](c3ccccc3)OC(=O)[C@H]1[C@@H]2C(=O)NC[C@H](O)c1ccccc1
z-score: 0.121
//
compound: C=CCNC(=O)[C@H]1[C@@H]2C(=O)O[C@@H](c3ccccc3)[C@@H](c3ccccc3)N2[C@@H](c2ccc(O)cc2)[C@]12C(=O)Nc1ccc(C#CC3(O)CCCCCC3)cc12
z-score: -0.0001

Provide only the value of recorded z-score for CCOc1cc(C(O)C2C=CC3C(=O)N(C)C(=O)C3N2Nc2ccccc2)ccc1O (stereo unspecified)
-0.157

----------
experiment: inhibitors of hydroxyurea-induced Chk1 phosphorylation, primary screen, imaging, HeLa, phospho-Chk1 nuclear intensity (AID 1187); settings: hydroxyurea-induced phospho-Chk1 immunofluorescence imaging, higher = more signal; note: test concentration not given here
The entries below come with measured z-score values attached.
Reply with just the number.

Example cases with answers are listed next.
compound: O=c1n(-c2ccccc2)c(=O)n2n1CC(COc1ccccc1)=C([C@H](O)CCc1ccccc1)[C@@H]2CO
z-score: 0.771
--
compound: CC(C)OC(=O)C=C1C[C@@H](c2ccc(C(F)(F)F)cc2)O[C@@H](c2ccc(C(F)(F)F)cc2)O1
z-score: 0.0075
--
compound: Cc1ccc(S[C@]2(C(=O)O)CC(=O)N(Cc3cc(C(F)(F)F)cc(C(F)(F)F)c3)[C@@H]2c2ccc(CO)cc2)cc1
z-score: -0.641
--
compound: C=C(/C(=C/C[C@@H](OC(C)=O)c1cccc(OCCO)c1)c1cc(C(=O)OC)ccc1OC)C(C)C
z-score: -0.42

Attention now turns to another entry.
Provide only the value of recorded z-score for C=CC1c2cc(O)c(OC)cc2CCN1Cc1cc2c(cc1Br)OCO2 (stereo not drawn)
-0.0965

----------
system: Plasmodium falciparum Sir2 (PF13_0152, Sir2A); assay: pfSir2 binders on small-molecule microarrays, primary screen, biochemical, small-molecule microarray, 635 nm fluorescence (AID 1098); details: small-molecule microarray binding, fluorescence 635 nm; higher = more signal;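 note: score merges spot fluorescence intensity with its signal-to-noise ratio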
Think of 0.04 as a floor: if composite z-score stands on it or above, it is TRUE; beneath it, FALSE.

Check if composite z-score >= 0.04 (inclusive). Item: C=CC[C@]1(C(=O)O)COC(c2ccc(OCCCO)cc2)=N1
TRUE

----------
experiment: fission yeast growth modulation, primary screen, strain 972, OD600, 24 h, no modulator (AID 1090);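 note: basal condition with compound alone and no growth modifier present; test concentration not given here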; settings: S. pombe 972 growth, higher = more signal, called active from +8 up or from −8 down
readout: z-score
Reply with just the number.

Example cases with answers are listed next.
compound: CCCCC(=C=CC[C@@H](O)c1ccccc1OCCO)C[C@@H](O)COCc1ccccc1
value: -2.1
--
compound: CC(c1ccccc1)C(O)C1C=CC2C(=O)N(c3ccccc3)C(=O)C2N1Nc1ccc([N+](=O)[O-])cc1 (configuration not stated)
value: 1.58

Provide only the value of recorded z-score for CC(=O)c1ccc(C(O)C2C=CC3C(=O)N(c4ccccc4)C(=O)C3N2Nc2ccc(C#N)cc2)cc1 (configuration not stated)
1.04

Provide only the value of recorded z-score for COCCOC(=O)N1C(=O)[C@@]2(c3cc(C#CC4=CCCCC4)ccc31)[C@H](c1ccccc1OCCO)N1[C@H](c3ccccc3)[C@H](c3ccccc3)OC(=O)[C@H]1[C@@H]2C(=O)Nc1nc2ccccc2s1
0.615

Provide only the value of recorded z-score for CN(C)C(=O)[C@@]1(CCS(=O)(=O)c2ccccc2)N=C(c2ccc(OCCCO)cc2)O[C@H]1c1ccccc1
-0.255

Provide only the value of recorded z-score for CC(C)(C)N1CC=CC23O[C@@H]4C=CCOC(=O)[C@@H]4[C@H]2C(=O)N(CCCCCCO)[C@@H]3C1=O (some centres not stated)
-1.27

Provide only the value of recorded z-score for O=C1N(Cc2ccccc2)Cc2ccccc2[C@@H]2OC(c3ccc(OCCCO)cc3)=N[C@]12CCS(=O)(=O)c1ccccc1
1.41

----------
experiment: small-molecule binders of probe aNOTCH2, primary screen, biochemical, small-molecule microarray, 635/667 nm fluorescence (AID 1121); settings: higher = more signal;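 note: score merges feature fluorescence read at 667 nm with its signal to noise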
readout: composite z-score
Reply with just the number.

Example cases with answers are listed next.
molecule: O=C1O[C@H](c2ccccc2)[C@H](c2ccccc2)N2[C@H]1[C@@H](C(=O)Nc1nc3ccccc3s1)[C@]1(C(=O)Nc3ccccc31)[C@H]2c1ccc(OCCO)cc1
composite z-score: -0.0895
//
molecule: COc1ccc(-c2cc3c(c(CCc4ccccc4)n2)[Si](C(C)C)(C(C)C)OC3)cn1
composite z-score: -0.169
//
molecule: COC(=O)c1cn(C[C@@H](Cc2ccccc2)NC(=O)N[C@H](CO)CCc2oc(C(C)=O)c(C(=O)OC)c2C(=O)OC)nn1
composite z-score: -0.128
//
molecule: CC[C@H]1C2=C3C(CC[C@H]4C(OCc5ccc(F)cc5C(F)(F)F)OC[C@](C)([C@@H]34)N(C(=O)OC(C)(C)C)C2)C(COC)C1COC (some centres not stated)
composite z-score: -0.0372
//
molecule: CN(C)c1ccc(C(O)C2C=CC3C(=O)N(c4ccccc4)C(=O)C3N2Nc2ccc([N+](=O)[O-])cc2)cc1 (configuration not stated)
composite z-score: -0.133
//
molecule: COc1ccc([Si](C)(C)[C@@H]2[C@@H](CC(=O)N3Cc4ccccc4C[C@H]3CO)O[C@]3(C(=O)N(C)c4ccccc43)[C@H]2C)cc1
composite z-score: 0.014

Provide only the value of recorded composite z-score for COC(=O)[C@@]1(Cc2ccc(F)cc2)[C@H]2c3cc(C(=O)N(C)C)n(CCc4ccc(O)c(OC)c4)c3C[C@H]2CN1C(=O)c1ccccc1
1.02
